Values compiled from the DeepSol protein solubility set.

assayText: soluble on expression in E. coli; label from the status in PepcDB or PDB records
quantity: soluble on expression in E. coli

Use these answered entries as a reference point.
MAYLERAYFGLQCFWGESAWAKLKGVVVTRVGYAGGKQPNPTYKNIKDHTEITEITFDPKVIEYSKLTNFFWKHHNPAERRKKQYQSAILYVNDDQKKVAEETLKVAKDKHGDIETYIEPLDKFYQAEDYHQKYWFRQKKILFDELSLLDTQVAEGELATKLNAYCAGFQDFHDLERLAKEYGLKDSFVNKVKDYALSGGDPRNCHA: not soluble
SMDSRLQRIHAEIKNSLKIDNLDVNRCIEALDELASLQVTMQQAQKHTEMITTLKKIRRFKVSQVIMEKSTMLYNKFKNMFLVGEGDSVLEVLFQ: soluble
MGSDKIHHHHHHMSIAVTTTDPTNTGVSTTSSSSLTGSNAADLQSSFLTLLVAQLKNQDPTNPMENNELTSQLAQISTVSGIEKLNTTLGSISGQIDNSQSLQASNLIGHGVMIPGTTVLAGTGSEEGAVTTTTPFGVELQQAADKVTATITDKNGAVVRTIDIGELTAGVHSFTWDGTLTDGSTAPNGSYNVAISASNGGTQLVAQPLQFALVQGVIRGNSGNTLDLGTYGTTTLDEVRQII: not soluble
MTNEFEILKPGKLLLASANLLDPNFKRTVLLMCEHNEEGSIGFILNKPMEFKVCEAISGFDEIDEPLHMGGPVQVDTVHVLHTRGDVIDGAVEVIPGLFWGGDKEQLSYLINTGVIKASEVRFFLGYAGWSAGQLEAEFEEGSWYTADASSEQVFTDEYERMWSRSVRSKGGEYCYVANSPELPGMNLEHHHHHH: not soluble

Item `MGSDKIHHHHHHMHVEDYMNETPACLLAMLTQTREDLWQAAKALTERGVTRIILTGSGTSYHGALTARSFMQQWCGLPVDVYWPFLLDDSALTLSDKALVIGISQGGGSLSTLAAMERARAAGHLTASMAGEAPAVIDRAADLVLTVPCGEERAGAKTKGYHCTILNLMLLGLAVASRQRRLSDEERKALLIRMDTTFNHLPTLIEASQAWVLNHARPLIDSADIRLTGPARLFGTVQEGALKMLETLRCPVAGYEFEEFIHGIYNAFDERSTLIMLDPFPDERQDRLAEILGGWTQHIYRIGPQVENNGKNMPFAFINDPDFAVFEYIIPLQMVCARLPPVKGIDPAIPKDPQFHQKMKSKQLN` has what recorded soluble on expression in E. coli?
not soluble

----------
assayText: soluble on expression in E. coli; label from the status in PepcDB or PDB records
quantity: soluble on expression in E. coli

MIDRQTNEPKQKTRIILAPMQGLVDDVMRDLLTRIGGYDECVSEFVRITHTVHSRSIWLKYVPEIANGNKTFSGTPCTVQLLGSDADNMAANALEAVRFGANKIDLNFGCPAPTVNKHKGGAILLKEPELIFHIVKTLRGRLPAHIPLTAKMRLGYEDKSRALECACAIAEGGACGLTVHARTKAEGYEPPAHWEWIRKIRDSVNIPVTANGDVFSLQDYIGIKTISGCNSVMLGRGAVIRPDLARQIKQYENGGPVKDTDFAEVSKWIRQFFELCLTKEANNKYPLARLKQWLGMMKKEFAAAQNLFDRVRTVKDADEVRNILAEFEREMNT: not soluble
MELKTSDVAARLGVSPKTIQRWVRKYDIPLRRNEAGHYLFDEKTVALLERVKFEQGAAMEAPPTPKRPPTPLRNNIPIDALHESIEPEIARVSSRLDQLERQLEQKADDVVSIQLLHHRQEMEEIVARLTALEQLVARLEQQLNTRPPAPHEPPEETKQKRRGLGRVMGLFA: not soluble
MSLNIFDIAKQNQEKAWQVIKNTNIIQIWEDAGAKINLVGSLRTGLLMKHRDIDFHIYSSPLNLTDSFQAMARLAENPSIKRIECANLLHTAEACIEWHAWYQNEENELWQMDMIHIREGSRYDGYFEKVAQRISEIMTDEIRETILRLKYETPETEKIIGVEYYQAVIRDGVRDYSGFKEWRKQHPVTGVVEWMPEGHHHHHH: soluble
MDCCEERGVARHKGLSQVGTPGCPRWSQAVSCRCSAYREAAVTAVQMPLTPGYGETPLPHDELAALLPEVVEVLDKPITRADVYDLEQGLQDQVFDLLMPTAVEGSLSLDELLSDHFVRDLHARMFGPV: soluble
MSLKFSAKLVDDPSIEKSSSAIRLMCLSDTHGVHNNINKNTIFPADILLFAGDMTLFGNPEHAESFKNFITSLPVQHKVIISGNLDLPFDLKNYSHFTEWFSKFSYKNGPESIKTTFTEDQDIIYLEHQAVTIENVKIFGSPFTPAFGDFGFPTTKDTASKLWEQVPEDTDVILCHGPPHNICDMTSTGFHAGCPELRKSVERVKPAAVVFGHIHEAHGNTMIGNTLCCNVAIVNSNRDVAYGPTYIDLIQEGHHHHHH: soluble

Item `MEHLGKVFREFRTSGNYSLKEAAGESCSTSQLSRFELGESDLAVSRFFEILDNIHVTIENFMDKARNFHNHEHVSMMAQIIPLYYSNDIAGFQKLQREQLEKSKSSTTPLYFELNWILLQGLICQRDASYDMKQDDLGKVADYLFKTEEWTMYELILFGNLYSFYDVDYVTRIGREVMEREEFYQEISRHKRLVLILALNCYQHCLEHSSFYNANYFEAYTEKIIDKGIKLYERNVFHYLKGFALYQKGQCKEGCKQMQEAMHIFDVLGLPEQVAYYQEHYEKFVKS` has what recorded soluble on expression in E. coli?
not soluble

----------
assayText: soluble on expression in E. coli; label from the status in PepcDB or PDB records
quantity: soluble on expression in E. coli

MPDKKTLWMLNELEGFEKPKIKLEQYATSSELAVSMMEMIDETIGFEGKKLIDIGCGCGMLMTTAATMYELETVLGVDIDDEALKICSRNLETAEVQDRCELLQADILDPESDLPRGTFDVAVINPPFGTKNNAGIDMQFVQIGLQMVRPGGSVFSLHKSSTRDYILKNAKKWDGVGAECCAEMRWQLPATYKFHKQKAVDIAVDLIHFKKLDS: soluble
MSLKGKITLFFTALCFGLTGCIAPPKGLEKERFSINSYREISPQDLTCHCKTVRLGGKIVNTTVLANQTKIEVLSLPVSSISAKPFVELQSDGRFIVYFNGFVEPENLKERYITVGGQLAGTEKGKIEQADYTYPVVQADKYRIWTLSTTYDYPTDDWDEDDDWGFFRWRHRLWYVQPEIHYYLNEGGSHHHHHH: soluble

----------
assayText: soluble on expression in E. coli; label from the status in PepcDB or PDB records
quantity: soluble on expression in E. coli

Use these answered entries as a reference point.
MSEVTRSLLQRWGASLRRGADFDSWGQLVEAIDEYQILARHLQKEAQAQHNNSEFTEEQKKTIGKIATCLELRSAALQSTQSQEEFKLEDLKKLEPILKNILTYNKEFPFDVQPI: soluble
MFSDELEKISWEETTKAIYSKTDADVRRALSKEHCDVNDFMALISPAAAPYLETMARLSRKYTMERFGKTISMFVPLYITNSCTNSCVYCGFNHNNPMKRTILTEEEMVNEYKAIKKLAPFENLLLVTGENPAKAGVDYIERALLLAKPYFANLQIEVMPLKAEEYERLTHAGLNGVICFQETYNKANYNIYHPRGMKSKFEWRVNGFDRMGQAGVHKIGMGVLIGLEEWRTDITMMAYHLRYLQKHYWKTKYSVNFPRMRPSENGGFQPNVVMNDRELAQVTFAMRIFDHDVDISYSTRESAAFRNHMATLGVTTMSAESKTEPGGYFTYPQALEQFHVSDERKAVEVDAALRSLGRIPVYKDWDTALTLPQC: soluble
MANDIDRAGVAKAYARWAPIYDLVFGKVFDSGRQSTIAVADAIGGRVLDVGVGTGLSLSDYSKTTRLCGVDISEPMLRKAHERVRTLNLSNVDVLAVMDAKNLAFPANYFDAVVAQYVITAVPDPEATLDDFIRVLKPGGELILVNHIGAESGPRKLFELAFSPIARRLGWRPEFPWQRLVNWAARHRGVELAERRPMPPMGHFSLIRYRKLLEHHHHHH: not soluble
MDILSDIANAVLPQDVVSKVESKRAVAVLRGTAVFGTVWLTQKAEGEETEFEGEIKGLSPGLHGFHIHQYGDSTDGCTSAGPHFNPCKMNHGGRDSVVRHVGDLGNVEAGADGVAKIKFSDKVVSLFGANTVIGRSMVVHVDRDDLGQGIDDKAEESLKTGNAGARAACGVIALAAPA: not soluble

Item `MGSDKIHHHHHHMDIKQLKFLIALDETRHFGQAAARCNITQPTLSMRLRNLEEELGLPLVNRGQRFEGFTAPGERVLAWARTVLAAYDGLQAEAAACRGHLVGTLRLGVVPMSSFDPLPLLHRLHQLHPNLRFELSSLSSEQVLEQLASNRIDLGVSYLERLDSERFDSLTLDETRMGLLYDRRHFTFGDTPLSWADLVELPLGTLTSGMHFRQSIDHNFHSRGLQPNPLIQTDAVHQLLQAVHGGFCCAIMPLDGGLETLTEHLHLHPIADACTLARLGLIMRRSAPRSALAEACFALVAEIPR` has what recorded soluble on expression in E. coli?
not soluble

Item `AGKTLYDKLWDMHLVKQRDDGSALIYIDRHILHEVTSPQAFEGLRLAGRKPWRIDANIATPDHNVPTTRTERKGGIAAIADEVSRLQVQTLDENCDDFGITEFKMNDVRQGIVHVVGPEQGATLPGMTVVCGDSHTSTHGAFGALAHGIGTSEVEHVLATQCLVAKKMKN` has what recorded soluble on expression in E. coli?
not soluble
